Parameter selectivity ratio: see the listing below.
protocolNotes: Selectivity ratio of CC50 for monkey LLC-MK2 cells to IC50 for epimastigote stage of epimastigote stage of Trypanosoma cruzi Y
Assay type: ADME, cell-based
experimentalContext: read-out: Ratio CC50/IC50
valueKind: selectivity ratio

>>> reportedmeasurement("CCCCNc1nc2cc(Br)ccc2nc1SC")
0.9
>>> reportedmeasurement("CCCCNc1nc2cc(Br)ccc2nc1S(C)(=O)=O")
43.7
>>> reportedmeasurement("COc1ccc2nc(Cl)c(SC)nc2c1")
19.3
>>> reportedmeasurement("COc1ccc2nc(NC3CCCCC3)c([S+](C)[O-])nc2c1 (stereo not given)")
72.8
>>> reportedmeasurement("CS/C(=C/[N+](=O)[O-])Nc1ccc(Cl)cc1")
7.3
